Target: T1, human LRP6 E1E2 with a C-terminal 10× His tag, labeled with the dye NT-647 (human, UniProt O75581 21-630, dye NT-647 (Monolith NT Protein Labeling kit))
T1 construct: Low-density lipoprotein receptor-related protein 6 (LRP6), human, ectodomains E1 and E2; the limits P21-P630 are printed for the co-expression construct; the MST construct was cloned into another vector (pAcGP67A); also called Labeled LRP6 E1E2; source: High Five insect cells (pAcGP67A), purified (Ni-NTA, HiTrapQ, SEC), no tag cleavage; not shown: His10, C-terminal, kept
T1 sequence (looked up): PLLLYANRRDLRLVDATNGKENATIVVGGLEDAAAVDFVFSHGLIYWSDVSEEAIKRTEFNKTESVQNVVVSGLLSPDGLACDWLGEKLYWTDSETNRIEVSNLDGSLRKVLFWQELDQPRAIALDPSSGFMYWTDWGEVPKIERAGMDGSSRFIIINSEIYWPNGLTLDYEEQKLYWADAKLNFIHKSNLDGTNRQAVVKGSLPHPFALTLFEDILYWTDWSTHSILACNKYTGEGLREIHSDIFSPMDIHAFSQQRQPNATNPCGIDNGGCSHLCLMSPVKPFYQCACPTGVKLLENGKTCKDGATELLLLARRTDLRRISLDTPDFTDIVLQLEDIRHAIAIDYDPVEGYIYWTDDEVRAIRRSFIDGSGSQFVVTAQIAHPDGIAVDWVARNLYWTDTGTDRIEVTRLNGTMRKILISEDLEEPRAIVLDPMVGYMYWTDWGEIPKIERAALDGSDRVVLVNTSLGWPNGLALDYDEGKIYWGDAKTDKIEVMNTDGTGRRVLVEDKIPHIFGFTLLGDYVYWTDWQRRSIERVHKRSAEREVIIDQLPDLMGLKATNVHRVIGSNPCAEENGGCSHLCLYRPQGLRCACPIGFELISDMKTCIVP
Assay: MST; LRP6 E1E2 or E1 labeled with NT-647 at ~5 nM, unlabeled SOST proteins or peptides titrated; 20 mM Tris-Cl pH 7.0, 200 mM NaCl, 0.5 mg/ml BSA, 0.05% Tween 20; 22 °C; Monolith NT.115 Pico
Settings: both partners purified
Bridges are numbered along the chain shown (N, C = ends). Where no end group is shown, it is not given here.
observation.type: pKd
For clarity, pKd is expressed as the negative log10 of concentration in mol/L.

Please review the entries below; each comes with its answer.
binder	pKd
human WT SOST with an N-terminal His6-SUMO tag (natural protein, UniProt Q9BQB4 24-213, looked up, Sclerostin (SOST), human, wild type; Probably residues 24-213 (the truncated constructs begin at Q24 and the protein ends at Y213); Purified WT SOST ran as a doublet that PNGase F turned into one band (N175 likely glycosylated in part); also called Smo-SOST; SOST WT; source: High Five insect cells (pAcGP67A), purified (Ni-NTA, HiTrapQ, SEC), no tag cleavage; not shown: His6, N-terminal, kept; …) QGWQAFKNDATEIIPELGEYPEPPPELENNKTMNRAENGGRPPHHPFETKDVSEYSCRELHFTRYVTDGPCRSAKPVTELVCSGQCGPARLLPNAIGRGKWWRPSGPDFRCIPDRYRAQRVQLLCPGGEAPRARKVRLVASCKCKRLTRFHNQSELKDFGTEAARPQKGRKPRPRARSAKANQAELENAY	6.77
SOST∆loop2 with an N-terminal His6-SUMO tag (natural protein) QGWQAFKNDATEIIPELGEYPEPPPELENNKTMNRAENGGRPPHHPFETKDVSEYSCRELHFTRYVTDGPCRSAKPVTELVCSGQCGPAGSGGSGPDFRCIPDRYRAQRVQLLCPGGEAPRARKVRLVASCKCKRLTRFHNQSELKDFGTEAARPQKGRKPRPRARSAKANQAELENAY	6.00
CLLPNAIGRGKWGC (disulfide 1-14 (inferred), first cysteine of the printed peptide, for the ring-closing disulfide; last two residues of the printed peptide, with the second cysteine of the disulfide; source: synthetic peptide (Peptron)) [disulfide-bonded, circularized SOST loop 2 peptide (CLLPNAIGRGKWGC)]	5.26

Could you now consider this next binder?
Query: Endpoint output: pKd of SOST_(tr169) with an N-terminal His6-SUMO tag (domain or fragment, human, UniProt Q9BQB4 24-169, looked up, has neither the HNQS region nor the basic-residue cluster; also called Smo-SOST mutant tr169; source: High Five insect cells (pAcGP67A), purified (Ni-NTA, HiTrapQ, SEC), no tag cleavage; not shown: His6, N-terminal, kept; SUMO, N-terminal, kept) QGWQAFKNDATEIIPELGEYPEPPPELENNKTMNRAENGGRPPHHPFETKDVSEYSCRELHFTRYVTDGPCRSAKPVTELVCSGQCGPARLLPNAIGRGKWWRPSGPDFRCIPDRYRAQRVQLLCPGGEAPRARKVRLVASCKCKR . Value?
Reply: 6.05

Just for reference, paper PMC7585440 is where these values come from.
